Each item that follows carries a reported GI50.
- Tested on: OVCAR-3
- measurement-notes: NCI tumour cell line growth inhibition, 48 h
The source made the active and inactive calls. No stated cut-off is given here; in the data, active = GI50 up to about 1.1 µM and inactive = higher.
observable: GI50

CC[C@H](C)[C@H]1NC(=O)[C@@H](NC(=O)[C@@H](CC(C)C)N(C)C(=O)C2CCCN2C(=O)[C@H](C)O)[C@@H](C)OC(=O)[C@H](Cc2ccc(OC)cc2)N(C)C(=O)[C@@H]2CCCN2C(=O)[C@H](CCCCNC(=O)OCc2ccccc2)NC(=O)[C@H](C)C(=O)[C@H](C(C)C)OC(=O)C[C@@H]1O (stereo partly drawn)
4.01 µM (inactive)
CC(C)N(C(=O)C12C3C4C5C3C1(C(=O)N(C(C)C)C(C)C)C5C42)C(C)C (stereo not drawn)
> 100 µM (inactive)
CCOc1ccc(/C(C=O)=C(\Cl)c2ccc(OC)cc2)cc1
> 100 µM (inactive)

----------
- Test system: SK-MEL-28
- measurement-notes: NCI tumour cell line growth inhibition, 48 h
The source made the active and inactive calls. No stated cut-off is given here; in the data, active = GI50 up to about 1.1 µM and inactive = higher. Residues, ends and D or L forms follow the SMILES beside them. *: point of attachment. Boc = CC(C)(C)OC(=O)*
observable: GI50

CC1(C)C2CCC1(CC(=O)O)C(Cl)C2 (stereo not drawn)
> 100 µM (inactive)
O=C(/C=C/c1ccc(OCc2ccccc2)cc1)NCc1ccc(C(=O)NCCc2c[nH]c3ccccc23)cc1
74.5 µM (inactive)
CCOC(=O)C1(C/C=C(/C)Cl)CCCC1=O (stereo not drawn)
> 100 µM (inactive)
COC(=O)[C@]1(C)CC[C@]2(C)CC[C@]3(C)C4[C@H]5Oc6c(cc7c(c6C)CCC6[C@@]7(C)CC[C@@]7(C)C8[C@](C)(CCC[C@@]8(C)C(=O)OC)CC[C@]67C)O[C@H]5c5c(cc6c(c5C)O[C@@]5(C)C7=CC=C8[C@@](C)(CC[C@@]9(C)[C@@H]%10C[C@](C)(C(=O)OC)CC[C@]%10(C)CC[C@]89C)C7=CC(=O)[C@@]5(O)O6)[C@]4(C)CC[C@@]3(C)C2C1 (stereo partly drawn)
7.53 µM (inactive)
CCCCNCC(=O)O[C@]1(CC)C(=O)OCc2c1cc1n(c2=O)Cc2cc3ccccc3nc2-1
2.17 µM (inactive)
CN1C(=O)[C@@H]2N(CSC2(C)C)C1=S
> 100 µM (inactive)
CCOC(=O)CCC1(C(=O)O[C@@H]2C[C@H](C)CC[C@H]2C(C)C)CCCCC1=O (stereo partly drawn)
74 µM (inactive)
CS(=O)(=O)N(CC(=O)O)Cc1ccccc1
> 100 µM (inactive)
O=CC(O)C(O)C(O)C(O)C(=O)NCCCCCCCCCCCCNC(=O)C(O)C(O)C(O)C(O)C=O (stereo not drawn)
> 100 µM (inactive)
CC(C)(C)OC(=O)NC(Cc1ccc(O)cc1)C(=O)NC(CCCCN)C(=O)O (stereo not drawn) (Boc-Tyr-Lys-OH; configuration not given here)
23.8 µM (inactive)
CC1=C2[C@@H](c3ccccc3)C3C=CC2(c2ccccc23)N(C(=O)Nc2cccc3ccccc23)C1=O (stereo partly drawn)
> 100 µM (inactive)
C[C@@H](c1ccccc1)N1CN(C(=O)OCc2ccccc2)C(CO)C1=O (stereo partly drawn)
> 100 µM (inactive)
Cc1ccc(S(=O)(=O)N2C[C@](O)(c3ccccc3)[C@H]2C)cc1
> 100 µM (inactive)

----------
- Test system: HT-29
- measurement-notes: NCI tumour cell line growth inhibition, 48 h
The source made the active and inactive calls. Rule as the data show it: active = GI50 up to about 1.1 µM and inactive = higher.
observable: GI50

OCCCCCCCCCCCOc1ccc(C2OCC3(CO2)COC(c2ccc(OCCCCCCCCCCCO)cc2)OC3)cc1 (stereo unspecified)
> 50 µM (inactive)
C=CCOC(=O)C1=C(C)N=C2N[C@H](CCCCCCCCC)C[C@@H]3CCC1N23 (stereo partly specified)
27.9 µM (inactive)
S=C(/N=C1/NCC(CN2CCN(c3ccccc3)CC2)O1)Nc1ccccc1 (stereo unspecified)
42.2 µM (inactive)
Cc1ccc(C2=C(Cl)C(=O)C(c3ccc(C)cc3)=C(Cl)C2=O)cc1
> 100 µM (inactive)
CC1(C)C2CCC1(CC(=O)O)C(Cl)C2 (stereo unspecified)
> 100 µM (inactive)
CCCCCCCCCCCCCCNCC(OCC)OCC
2.86 µM (inactive)

----------
- System: Hs-578T
- measurement-notes: NCI tumour cell line growth inhibition, 48 h
Active and inactive are the calls of the source. Rule as the data show it: active = GI50 up to about 1.1 µM and inactive = higher.
observable: GI50

CCCCCCC(N)(CCCCCC)C(=O)Nn1c(C)ccc1C
18.8 µM (inactive)
COC(=O)c1ccc(COC(=O)N2C=CCC2C(=O)O)cc1 (centres undefined)
> 100 µM (inactive)
NC(Cc1ccccc1)C(=O)OCN1C(=O)C2C3C=CC(C2C1=O)C1C(=O)N(COC(=O)C(N)Cc2ccccc2)C(=O)C31 (centres undefined)
> 100 µM (inactive)
COc1ccc(/C=C2\CCC(Cc3ccccc3)(CN(C)C)C2=O)cc1 (centres undefined)
> 91.2 µM (inactive)
C[n+]1c(-c2ccc(/C=N\N3CCN(/N=C/c4ccc(-c5cn6ccsc6[n+]5C)cc4)CC3)cc2)cn2ccsc21
19.2 µM (inactive)
CC1(C)[N+]([O-])=[N+]([O-])C1(C)O (centres undefined)
> 100 µM (inactive)
COc1ccc(C2SCC(=O)N2c2ccc(-c3ccc(-n4c(-c5ccccc5)nc5ccccc5c4=O)cc3)cc2)cc1 (centres undefined)
25.9 µM (inactive)
CCOc1ccc(/C(C=O)=C(\Cl)c2ccc(OC)cc2)cc1
34.4 µM (inactive)
C=CCOC(=O)C1=C(C)N=C2N[C@H](CCCCCCCCC)C[C@@H]3CCC1N23 (some centres undefined)
21.5 µM (inactive)

----------
Each item that follows carries a reported GI50.
- Test system: SF-295
- measurement-notes: NCI tumour cell line growth inhibition, 48 h
Active and inactive are the calls of the source. Rule as the data show it: active = GI50 up to about 1.1 µM and inactive = higher.
observable: GI50

CC(=O)c1cn(-c2ccc(Cl)cc2)c(=O)c2c(N)n[nH]c12
> 100 µM (inactive)
COc1ccc(NC(=O)CC/C(CC(=O)c2ccco2)=N/NC(N)=S)cc1
> 100 µM (inactive)
COc1ccc(OC)c2sc(N3C(=O)/C(=C/c4ccc(SC)cc4)N=C3c3ccccc3)nc12
42 µM (inactive)
COC(=O)C(CCS(=O)(=O)CC(=O)C(=O)Nc1cccc(C(C)=O)c1)C(=O)OC
> 100 µM (inactive)
CCCC(=O)NC1=C(Cl)C(=O)c2ccccc2C1=O
4.99 µM (inactive)

----------
- System: NCI-H23
- measurement-notes: NCI tumour cell line growth inhibition, 48 h
The source made the active and inactive calls. No stated cut-off is given here; in the data, active = GI50 up to about 1.1 µM and inactive = higher.
Each item that follows carries a reported GI50.
observable: GI50

C=C(C)C1CCC2(C)C1CCC1(C)C2CCC2C3(C)C4OC(OC4=O)C(C)(C)C3CCC21C (stereo not drawn)
> 100 µM (inactive)
CC1=CC(=O)N(n2c(-c3ccccc3)n[nH]c2=O)C1=O
> 100 µM (inactive)
C=CCc1c(O)c2c(c3oc(=O)cc(C)c13)CC(C)O2 (stereo not drawn)
> 100 µM (inactive)
COc1ccc2cc3[n+](cc2c1OC)CCc1cc(O)c(O)cc1-3
> 100 µM (inactive)
O=[PH](O)c1cc2c3ccccc3ccc2c2ccccc12
> 100 µM (inactive)
Nc1ccc(C(=O)N2CCC[C@H]2CO)c(N)c1
> 100 µM (inactive)
CNC1=C/C(=N/C2=CC(=N/C(=C\C#N)C(C)(C)O)/OC2(C)C)OC1(C)C
33.3 µM (inactive)
CC[C@H](C)[C@H]1NC(=O)[C@@H](NC(=O)[C@@H](CC(C)C)N(C)C(=O)C2CCCN2C(=O)[C@H](C)O)[C@@H](C)OC(=O)[C@H](Cc2ccc(OC)cc2)N(C)C(=O)[C@@H]2CCCN2C(=O)[C@H](CCCCNC(=O)OCc2ccccc2)NC(=O)[C@H](C)C(=O)[C@H](C(C)C)OC(=O)C[C@@H]1O (stereo partly drawn)
10.7 µM (inactive)

----------
- Tested on: SR
- measurement-notes: NCI tumour cell line growth inhibition, 48 h
Calls of active or inactive are those of the source. Cut-off read from the data, not from the text of the source: active = GI50 up to about 1.1 µM and inactive = higher. Residues, ends and D or L forms follow the SMILES beside them. *: point of attachment. Boc = CC(C)(C)OC(=O)*
Each item that follows carries a reported GI50.
observable: GI50

Nc1ncnc2c1ncn2C1CC(O)C(CO)O1 (centres undefined)
> 100 µM (inactive)
O=[N+]([O-])C(=C(Nc1cccc2cccnc12)Nc1cccc2cccnc12)C(Cl)=C(Cl)Cl
> 100 µM (inactive)
CN1C(=O)C(=CN)C(=O)N(C)C1=O
> 100 µM (inactive)
CCC(CCCN)Nc1cc(OC)cc2c(C)ccnc12 (centres undefined)
15.3 µM (inactive)
CC(=O)O[C@H]1[C@@H]2[C@@H]3[C@@H](C[C@H]1C)[C@@H](C)CO[C@@]1(C)CC/C=C(/C)C[C@@H]2O[C@@H]31
> 100 µM (inactive)
CC(C)(C)OC(=O)NC(Cc1ccc(O)cc1)C(=O)NC(CCCCN)C(=O)O (stereo not drawn) (Boc-Tyr-Lys-OH; configuration not given here)
28.6 µM (inactive)
COc1ccc(CN2C(=O)[C@@H]3Cc4c(OC)c(C)c(OC)c(OC)c4[C@H](/C2=C\c2cc(OC)c(OC)c(C)c2OC)N3C(=O)OC(C)C)cc1
6.53 µM (inactive)
CC1(C)CC(=O)C(C(=O)Nc2cccs2)=C(O)C1
29.9 µM (inactive)
C[C@@H](c1ccccc1)N1CN(C(=O)OCc2ccccc2)C(CO)C1=O (some centres undefined)
> 100 µM (inactive)
